# Test system: Human immunodeficiency virus 1
# assay overview: Binding affinity to HIV1 3B recombinant gp-120 at 50 uM after 5 mins by surface plasmon resonance analysis
Active and inactive are the calls of the source. The calls are words filed in the database; no cut-off is given here.
endpoint label: Activity

As a guide, the following entries are already answered.
O=C(O)[C@H](Cc1c[nH]c2ccccc12)Nc1nc(NCc2ccccc2)nc(N[C@@H](Cc2c[nH]c3ccccc23)C(=O)O)n1 ... inactive
O=C(O)[C@H](Cc1ccc(O)cc1)Nc1nc(NCc2cccc(CNc3nc(N[C@@H](Cc4ccc(O)cc4)C(=O)O)nc(N[C@@H](Cc4ccc(O)cc4)C(=O)O)n3)c2)nc(N[C@@H](Cc2ccc(O)cc2)C(=O)O)n1 ... Active
O=C(O)[C@H](Cc1ccc(O)cc1)Nc1nc(NCc2ccccc2)nc(N[C@@H](Cc2ccc(O)cc2)C(=O)O)n1 ... inactive
CCc1c(CNc2nc(N[C@@H](Cc3ccc(O)cc3)C(=O)O)nc(N[C@@H](Cc3ccc(O)cc3)C(=O)O)n2)c(CC)c(CNc2nc(N[C@@H](Cc3ccc(O)cc3)C(=O)O)nc(N[C@@H](Cc3ccc(O)cc3)C(=O)O)n2)c(CC)c1CNc1nc(N[C@@H](Cc2ccc(O)cc2)C(=O)O)nc(N[C@@H](Cc2ccc(O)cc2)C(=O)O)n1 ... Active

From here, focus on the item given below.
Task: // query Activity value for entry `CCc1c(CNc2nc(N[C@@H](Cc3c[nH]c4ccccc34)C(=O)O)nc(N[C@@H](Cc3c[nH]c4ccccc34)C(=O)O)n2)c(CC)c(CNc2nc(N[C@@H](Cc3c[nH]c4ccccc34)C(=O)O)nc(N[C@@H](Cc3c[nH]c4ccccc34)C(=O)O)n2)c(CC)c1CNc1nc(N[C@@H](Cc2c[nH]c3ccccc23)C(=O)O)nc(N[C@@H](Cc2c[nH]c3ccccc23)C(=O)O)n1`
Output: Active

----------
# Tested on: Human immunodeficiency virus 1
# assay overview: Antiviral activity against HIV1 3B infected in human CEM cells assessed as inhibition of virus-induced cytopathicity after 4 days
# Type: functional, organism-based
# assay setup: Human immunodeficiency virus 1, 3B, CCRF-CEM, 96 h
endpoint label: EC50 (µM)
API: value field is a number in µM; no unit string.

Task: // query EC50 value for entry `CCc1c(CNc2nc(N[C@@H](Cc3c[nH]c4ccccc34)C(=O)O)nc(N[C@@H](Cc3c[nH]c4ccccc34)C(=O)O)n2)c(CC)c(CNc2nc(N[C@@H](Cc3c[nH]c4ccccc34)C(=O)O)nc(N[C@@H](Cc3c[nH]c4ccccc34)C(=O)O)n2)c(CC)c1CNc1nc(N[C@@H](Cc2c[nH]c3ccccc23)C(=O)O)nc(N[C@@H](Cc2c[nH]c3ccccc23)C(=O)O)n1`
Output: 16

Task: // query EC50 value for entry `O=C(O)[C@H](Cc1ccc(O)cc1)Nc1nc(NCc2cccc(CNc3nc(N[C@@H](Cc4ccc(O)cc4)C(=O)O)nc(N[C@@H](Cc4ccc(O)cc4)C(=O)O)n3)c2)nc(N[C@@H](Cc2ccc(O)cc2)C(=O)O)n1`
Output: 148

Task: // query EC50 value for entry `CCc1c(CNc2nc(N[C@@H](Cc3ccc(O)cc3)C(=O)O)nc(N[C@@H](Cc3ccc(O)cc3)C(=O)O)n2)c(CC)c(CNc2nc(N[C@@H](Cc3ccc(O)cc3)C(=O)O)nc(N[C@@H](Cc3ccc(O)cc3)C(=O)O)n2)c(CC)c1CNc1nc(N[C@@H](Cc2ccc(O)cc2)C(=O)O)nc(N[C@@H](Cc2ccc(O)cc2)C(=O)O)n1`
Output: 22

Task: // query EC50 value for entry `O=C(O)[C@H](Cc1c[nH]c2ccccc12)Nc1nc(NCCN(CCNc2nc(N[C@@H](Cc3c[nH]c4ccccc34)C(=O)O)nc(N[C@H](Cc3c[nH]c4ccccc34)C(=O)O)n2)CCNc2nc(N[C@@H](Cc3c[nH]c4ccccc34)C(=O)O)nc(N[C@H](Cc3c[nH]c4ccccc34)C(=O)O)n2)nc(N[C@H](Cc2c[nH]c3ccccc23)C(=O)O)n1`
Output: 20
